- Assayed target: human adenosine A2A receptor (A2aR) (human, UniProt P29274 1-412)
- Sequence (P29274 whole entry): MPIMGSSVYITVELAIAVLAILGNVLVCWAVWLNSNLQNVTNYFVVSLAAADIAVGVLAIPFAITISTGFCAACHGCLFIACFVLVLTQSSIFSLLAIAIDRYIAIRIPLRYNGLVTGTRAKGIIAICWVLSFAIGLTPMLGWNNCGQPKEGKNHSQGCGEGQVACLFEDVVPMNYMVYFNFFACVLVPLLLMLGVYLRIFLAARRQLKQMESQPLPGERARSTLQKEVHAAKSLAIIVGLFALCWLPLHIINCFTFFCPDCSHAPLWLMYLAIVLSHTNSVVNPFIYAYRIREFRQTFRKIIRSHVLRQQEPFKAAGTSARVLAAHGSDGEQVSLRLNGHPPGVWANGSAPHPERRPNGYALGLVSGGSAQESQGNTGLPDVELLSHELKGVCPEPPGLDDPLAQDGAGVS
- Run description: flow cytometry, HEK293-hA2aR cells, supernatant 1 ug/ml
Observation type: MFI (MFI)
Give the value in MFI but do not write MFI after it.

Respond only with MFI recorded for Hu3F6-H5/Hu3F6-L2 (antibody, human IgG1, V domains shown) VH: EVQLVQSGAEVKKPGASVKVSCKTSGFAFTSYWMNWVRQAPGQGLEWIGRIDPSDSEAHYAHKFWGRATLTVDKSSSTVYMELSSLRSEDTAVYYCLRSLYGKGDYWGHGTTVTVSS VL: DVVMTQSPLSLPVTLGQPASISCRSSQSLVHRNGNTYLEWYQQRPGQSPRRLIYKVSNRFSGVPDRFSGSGSGTDFTLKISRVEAEDVGVYYCYQGSHVPLTFGGGTKVEIK 191

Respond only with MFI recorded for Hu1B5-H3/Hu1B5-L1 (antibody, human IgG1, V domains shown) VH: EVQLVQSGAEVKKPGASVKVSCKTSGFTFTRFWMNWVRQAPGQGLEWIGRIDPYDSETQYNHKFWDRATLTVDTSSSTVYMELSSLRSEDTAVYYCGRSLYGKGDYWGQGTTVTVSS VL: DVVMTQSPLSLPVTLGQPASISCRSSQSIVHSNGNTYLEWFQQRPGQSPRRLIYKVSNRFSGVPDRFSGSGSGTDFTLKISRVEAEDVGVYYCFQGSHVPLTFGGGTKVEIK 152

Name the recorded MFI of the binder listed here: Hu1B5-H2.1/Hu1B5-L1 (antibody, human IgG1, V domains shown) VH: EVQLVQSGAEVKKPGASVKVSCKTSGFTFTRFWMNWVRQAPGQGLEWIGRIDPYDSETQYNHKFWDRVTMTVDTSTSTVYMELSSLRSEDTAVYYCGRSLYGKGDYWGQGTTVTVSS VL: DVVMTQSPLSLPVTLGQPASISCRSSQSIVHSNGNTYLEWFQQRPGQSPRRLIYKVSNRFSGVPDRFSGSGSGTDFTLKISRVEAEDVGVYYCFQGSHVPLTFGGGTKVEIK 145

Look up and state reported MFI for Hu3F8-H6/Hu3F8-L1 (antibody, human IgG1, V domains shown) VH: EVQLVQSGAEVKKPGESLRISCKASGFTFTRYWMNWVRQMPGKGLEWIGRIDPSDSETHYNHKFWGHATLSVDKSSSTVYLQWSSLKASDTAMYYCLRSLYGKGDYWGQGTTVTVSS VL: DVVMTQSPLSLPVTLGQPASISCRSSQSIVHSNGNTYLEWFQQRPGQSPRRLIYKVSNRFSGVPDRFSGSGSGTDFTLKISRVEAEDVGVYYCYQGSHVPLTFGGGTKVEIK 158

Please indicate MFI recorded for Hu1B5-H6/Hu1B5-L1 (antibody, human IgG1, V domains shown) VH: EVQLVQSGAEVKKPGESLRISCKTSGFTFTRFWMNWVRQMPGKGLEWIGRIDPYDSETQYNHKFWDHATLSVDKSSSTVYLQWSSLKASDTAMYYCGRSLYGKGDYWGQGTTVTVSS VL: DVVMTQSPLSLPVTLGQPASISCRSSQSIVHSNGNTYLEWFQQRPGQSPRRLIYKVSNRFSGVPDRFSGSGSGTDFTLKISRVEAEDVGVYYCFQGSHVPLTFGGGTKVEIK 178

Attribution: patent US20250206828A1
